Target: human vasopressin V1a receptor (Homo sapiens)
Test: Vasopressin V1a receptor binding assay
Conditions: selectivity for human V1b over human V1a, quotient of binding constants
PROPERTY_MEASURED: Ki(h-V1a)/Ki(h-V1b)

Some solved entries appear below for comparison.
molecule="CCOc1ncccc1[C@]1(NC(=O)N2CC3(C2)CN(C2CCN(C)CC2)C3)C(=O)N(S(=O)(=O)c2ccc(OC)cc2)c2ccc(C#N)cc21 [Example 33]" reported_measurement="++ (25-75)"
molecule="CCOc1ncccc1C1(NC(=O)N2CC3(C2)CN(C2CCNCC2)C3)C(=O)N(S(=O)(=O)c2ccc(OC)cc2OC)c2ccc(C#N)cc21.O=C(O)C(F)(F)F (stereo not drawn) [Example 59]" reported_measurement="+++ (>75)"
molecule="CCOc1ncccc1[C@]1(NC(=O)N2CC3(C2)CN(C2CCN(C(C)C)CC2)C3)C(=O)N(S(=O)(=O)c2ccc(OC)cc2)c2ccc(C#N)cc21 [Example 29]" reported_measurement="+++ (>75)"
molecule="CCOc1ccccc1[C@]1(NC(=O)N2CC3(C2)CN(C2CCN(C(C)C)CC2)C3)C(=O)N(S(=O)(=O)c2ccc(C)cc2)c2ccc(C#N)cc21 [Example 41]" reported_measurement="+++ (>75)"
molecule="CCOc1ncccc1[C@]1(NC(=O)N2CC3(CN(CCN4CCOCC4)C3)C2)C(=O)N(S(=O)(=O)c2ccc(C#N)cc2)c2ccc(C#N)cc21 [Example 5]" reported_measurement="+++ (>75)"
molecule="CCOc1ccccc1[C@]1(NC(=O)N2CC3(C2)CN(C2CCN(C4COC4)CC2)C3)C(=O)N(S(=O)(=O)c2ccc(OC)cc2)c2ccc(C#N)cc21.O=C(O)C(F)(F)F [Example 35B]" reported_measurement="++ (25-75)"
molecule="CCOc1ncccc1[C@]1(NC(=O)N2CC3(CC(OCCN4CCOCC4)C3)C2)C(=O)N(S(=O)(=O)c2ccc(OC)cc2)c2ccc(C#N)cc21 [Example 21A]" reported_measurement="+++ (>75)"
molecule="CCOc1ncccc1[C@]1(NC(=O)N2CC3(CN(CCN4CCOCC4)C3)C2)C(=O)N(S(=O)(=O)c2ccc(OC)cc2F)c2ccc(C#N)cc21 [Example 18]" reported_measurement="+++ (>75)"

### Prompt // lookup Ki(h-V1a)/Ki(h-V1b) for CCOc1ncccc1[C@]1(NC(=O)N2CC3(CN(CCN4CCOCC4)C3)C2)C(=O)N(S(=O)(=O)c2ccc(OC)cc2)c2cc(F)c(C#N)cc21 [Example 19]
### Response +++ (>75)

### Prompt Given CCOc1ncccc1[C@]1(NC(=O)N2CC3(CN(CCN4CCOCC4)C3)C2)C(=O)N(S(=O)(=O)c2ccc(F)cc2OC)c2ccc(C#N)cc21 [Example 17] , state its recorded Ki(h-V1a)/Ki(h-V1b).
### Response ++ (25-75)

### Prompt Could you share which Ki(h-V1a)/Ki(h-V1b) value was measured for CCOc1ncccc1C1(CC(=O)N2CC3(CN(CCN4CCOCC4)C3)C2)C(=O)N(S(=O)(=O)c2ccc(OC)cc2)c2ccc(C#N)cc21 (racemic) [Example 20] ?
### Response ++ (25-75)

====

Target: human vasopressin V1a receptor (Homo sapiens, UniProt P37288)
Sequence (P37288 whole entry): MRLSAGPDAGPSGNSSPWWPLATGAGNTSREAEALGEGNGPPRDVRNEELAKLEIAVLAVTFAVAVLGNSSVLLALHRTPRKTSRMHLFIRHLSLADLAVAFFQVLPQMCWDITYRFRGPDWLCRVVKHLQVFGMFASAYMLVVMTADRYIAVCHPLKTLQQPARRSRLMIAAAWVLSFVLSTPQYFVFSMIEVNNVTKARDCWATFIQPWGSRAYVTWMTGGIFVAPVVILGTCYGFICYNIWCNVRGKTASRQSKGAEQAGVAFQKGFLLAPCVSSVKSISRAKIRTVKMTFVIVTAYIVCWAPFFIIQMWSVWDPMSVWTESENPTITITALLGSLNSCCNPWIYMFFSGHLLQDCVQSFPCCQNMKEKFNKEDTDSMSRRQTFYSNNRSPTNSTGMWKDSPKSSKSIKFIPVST
Assay: Vasopressin V1a receptor binding assay
Details: selectivity for human V1b over human V1a, quotient of binding constants
PROPERTY_MEASURED: Ki(h-V1a)/Ki(h-V1b)

compound=CCOc1ncccc1[C@]1(NC(=O)N2CC3(CN(CCN4CCOCC4)C3)C2)C(=O)N(S(=O)(=O)c2ccc(OC)cc2F)c2ccc(C#N)cc21.O=C(O)C(F)(F)F study_target="human vasopressin V1a receptor (Homo sapiens, UniProt P37288)" reported_measurement="++ (25-75)"
compound=CCOc1ncccc1[C@]1(NC(=O)N2CC3(C2)CN(C2CCN(C)CC2)C3)C(=O)N(S(=O)(=O)c2ccccc2OC)c2ccc(C#N)cc21 study_target="human vasopressin V1a receptor (Homo sapiens, UniProt P37288)" reported_measurement="++ (25-75)"

Reference source for all entries: patent US9527856B2
